Numbers sourced from patent US10100030B2.

assayedTarget: CYP3A4 (Homo sapiens (Human))
Sequence (P08684 whole entry): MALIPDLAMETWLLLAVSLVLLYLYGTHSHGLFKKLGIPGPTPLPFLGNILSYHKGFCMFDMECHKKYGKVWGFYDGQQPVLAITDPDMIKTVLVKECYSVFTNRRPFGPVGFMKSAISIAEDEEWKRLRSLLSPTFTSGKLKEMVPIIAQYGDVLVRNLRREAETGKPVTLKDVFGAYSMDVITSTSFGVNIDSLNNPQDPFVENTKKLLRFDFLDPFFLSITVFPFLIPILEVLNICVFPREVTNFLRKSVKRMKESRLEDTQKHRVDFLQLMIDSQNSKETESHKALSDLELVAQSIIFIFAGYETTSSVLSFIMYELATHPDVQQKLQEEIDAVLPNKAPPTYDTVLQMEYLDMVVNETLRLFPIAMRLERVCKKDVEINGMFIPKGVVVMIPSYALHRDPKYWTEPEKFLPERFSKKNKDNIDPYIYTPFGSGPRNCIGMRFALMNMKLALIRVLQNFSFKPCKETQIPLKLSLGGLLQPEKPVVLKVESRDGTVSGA
procedureDetails: Inhibitory effect on CYP3A4 (Luciferin-IPA)
assaySetup: read-out: IC50 (CYP3A4 inhibition); 30-minute pre-incubation group
pIC50: −log10 of the molar value.
quantity: pIC50

Below: 7 compounds and their reported pIC50.
{"columns": ["compound", "assayedTarget", "pIC50"],
 "data": [
  ["COC1CN(c2cc(-c3ccc(F)cc3C)c(N(C)C(=O)C(C)(C)c3cc(C(F)(F)F)cc(C(F)(F)F)c3)cn2)CCC1CC(=O)O (stereo not drawn)", "CYP3A4 (Homo sapiens (Human))", 5.26],
  ["Cc1cc(F)ccc1-c1cc(N2CCC(CC(=O)O)CC2)ncc1N(C)C(=O)C(C)(C)c1cc(C(F)(F)F)cc(C(F)(F)F)c1", "CYP3A4 (Homo sapiens (Human))", 5.21],
  ["Cc1ccccc1-c1cc(N2CCC(CC(=O)O)CC2)ncc1N(C)C(=O)C(C)(C)c1cc(C(F)(F)F)cc(C(F)(F)F)c1", "CYP3A4 (Homo sapiens (Human))", 4.89],
  ["Cc1cc(F)ccc1-c1cc(N2CCC(C)(CC(=O)O)CC2)nc(C#N)c1N(C)C(=O)C(C)(C)c1cc(C(F)(F)F)cc(C(F)(F)F)c1", "CYP3A4 (Homo sapiens (Human))", 5.42],
  ["Cc1cc(F)ccc1-c1cc(N2CCC(C(C)(C)C(=O)O)CC2)ncc1N(C)C(=O)C(C)(C)c1cc(C(F)(F)F)cc(C(F)(F)F)c1", "CYP3A4 (Homo sapiens (Human))", 5.39],
  ["Cc1cc(F)ccc1-c1cc(N2CCC(CC(=O)O)C(C)C2)ncc1N(C)C(=O)C(C)(C)c1cc(C(F)(F)F)cc(C(F)(F)F)c1 (stereo not drawn)", "CYP3A4 (Homo sapiens (Human))", 5.32],
  ["Cc1cc(F)ccc1-c1cc(N2CCC(CC(=O)O)CC2)nc(C#N)c1N(C)C(=O)C(C)(C)c1cc(C(F)(F)F)cc(C(F)(F)F)c1", "CYP3A4 (Homo sapiens (Human))", 5.59]
]}

[A] Cc1cc(F)ccc1-c1cc(N2CCC(C)(CC(=O)O)CC2)ncc1N(C)C(=O)C(C)(C)c1cc(C(F)(F)F)cc(C(F)(F)F)c1
[B] Cc1cc(F)ccc1-c1cc(N2CCC(CC(=O)O)C(C)(C)C2)ncc1N(C)C(=O)C(C)(C)c1cc(C(F)(F)F)cc(C(F)(F)F)c1 (stereo not drawn)
Could you tell me which of these two has the smaller pIC50 figure? First: A Second: B Indicate your choice by writing its label.
A
(A: 5.20, B: 5.43)

* * *

assayedTarget: human NK1 receptor (Homo sapiens (Human), UniProt P25103)
Sequence (P25103 whole entry): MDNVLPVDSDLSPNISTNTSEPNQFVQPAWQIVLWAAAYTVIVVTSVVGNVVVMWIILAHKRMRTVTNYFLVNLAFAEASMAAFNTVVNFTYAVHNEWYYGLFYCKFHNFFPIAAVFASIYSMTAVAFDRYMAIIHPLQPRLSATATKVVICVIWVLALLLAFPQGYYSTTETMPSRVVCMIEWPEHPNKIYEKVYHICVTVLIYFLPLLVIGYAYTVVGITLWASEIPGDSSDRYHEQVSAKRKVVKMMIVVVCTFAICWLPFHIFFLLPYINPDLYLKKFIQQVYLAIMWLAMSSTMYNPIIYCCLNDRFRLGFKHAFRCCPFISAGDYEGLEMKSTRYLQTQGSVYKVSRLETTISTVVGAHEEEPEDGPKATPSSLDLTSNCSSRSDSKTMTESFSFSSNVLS
quantity: IC50 (nM)

{"columns": ["compound", "assayedTarget", "unit", "IC50"],
 "data": [
  ["Cc1ccccc1-c1cc(N2CCC(CC(=O)O)CC2)ncc1N(C)C(=O)C(C)(C)c1cc(C(F)(F)F)cc(C(F)(F)F)c1", "human NK1 receptor (Homo sapiens (Human), UniProt P25103)", "nM", 2.53],
  ["Cc1cc(F)ccc1-c1cc(N2CCC(C)(CC(=O)O)CC2)ncc1N(C)C(=O)C(C)(C)c1cc(C(F)(F)F)cc(C(F)(F)F)c1", "human NK1 receptor (Homo sapiens (Human), UniProt P25103)", "nM", 2.83],
  ["Cc1cc(F)ccc1-c1cc(N2CCC([C@@H](C)C(=O)O)CC2)ncc1N(C)C(=O)C(C)(C)c1cc(C(F)(F)F)cc(C(F)(F)F)c1", "human NK1 receptor (Homo sapiens (Human), UniProt P25103)", "nM", 7.44],
  ["Cc1cc(F)ccc1-c1cc(N2CCC(C(C)C(=O)O)CC2)nc(C#N)c1N(C)C(=O)C(C)(C)c1cc(C(F)(F)F)cc(C(F)(F)F)c1 (stereo not shown)", "human NK1 receptor (Homo sapiens (Human), UniProt P25103)", "nM", 2.25],
  ["Cc1cc(F)ccc1-c1cc(N2CCC(CC(=O)O)CC2)nc(C#N)c1N(C)C(=O)C(C)(C)c1cc(C(F)(F)F)cc(C(F)(F)F)c1", "human NK1 receptor (Homo sapiens (Human), UniProt P25103)", "nM", 2.6],
  ["Cc1cc(F)ccc1-c1cc(N2CCC(CC(=O)O)C(C)C2)ncc1N(C)C(=O)C(C)(C)c1cc(C(F)(F)F)cc(C(F)(F)F)c1 (stereo not shown)", "human NK1 receptor (Homo sapiens (Human), UniProt P25103)", "nM", 3.54],
  ["Cc1cc(F)ccc1-c1cc(N2CCC([C@H](C)C(=O)O)CC2)ncc1N(C)C(=O)C(C)(C)c1cc(C(F)(F)F)cc(C(F)(F)F)c1", "human NK1 receptor (Homo sapiens (Human), UniProt P25103)", "nM", 1.32]
]}

* * *

assayedTarget: NK1 receptor (Meriones unguiculatus (Mongolian jird) (Gerbillus unguiculatus))
Sequence (Q5DUB1 whole entry): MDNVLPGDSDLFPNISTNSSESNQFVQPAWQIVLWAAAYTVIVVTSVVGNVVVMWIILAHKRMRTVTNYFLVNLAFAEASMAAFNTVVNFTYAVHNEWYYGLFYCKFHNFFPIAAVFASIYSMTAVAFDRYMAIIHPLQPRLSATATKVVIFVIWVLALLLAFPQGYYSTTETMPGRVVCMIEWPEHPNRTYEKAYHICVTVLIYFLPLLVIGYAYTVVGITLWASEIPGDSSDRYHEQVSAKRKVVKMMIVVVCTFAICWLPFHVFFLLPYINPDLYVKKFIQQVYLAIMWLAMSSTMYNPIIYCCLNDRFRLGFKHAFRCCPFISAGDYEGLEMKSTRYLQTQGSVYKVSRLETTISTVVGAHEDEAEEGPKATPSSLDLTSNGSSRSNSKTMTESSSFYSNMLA
procedureDetails: Effect on GR73632-induced foot-tapping
Assay type: in vivo
assaySetup: 0.3 mg/kg from the jugular vein, GR73632 after four hours, male gerbil
quantity: Inhibition (foot-tapping inhibition rate) (%)

{"columns": ["molecule", "resultNumber"],
 "data": [
  ["Cc1cc(F)ccc1-c1cc(N2CCC(CC(=O)O)C(C)C2)ncc1N(C)C(=O)C(C)(C)c1cc(C(F)(F)F)cc(C(F)(F)F)c1 (centres unmarked) [Example 4]", 100],
  ["Cc1cc(F)ccc1-c1cc(N2CCC(C(C)C(=O)O)CC2)nc(C#N)c1N(C)C(=O)C(C)(C)c1cc(C(F)(F)F)cc(C(F)(F)F)c1 (centres unmarked) [Example 8]", 100],
  ["Cc1cc(F)ccc1-c1cc(N2CCC(CC(=O)O)CC2)nc(C#N)c1N(C)C(=O)C(C)(C)c1cc(C(F)(F)F)cc(C(F)(F)F)c1 [Example 6]", 100],
  ["Cc1cc(F)ccc1-c1cc(N2CCC(C)(CC(=O)O)CC2)nc(C#N)c1N(C)C(=O)C(C)(C)c1cc(C(F)(F)F)cc(C(F)(F)F)c1 [Example 10]", 100],
  ["Cc1cc(F)ccc1-c1cc(N2CCC(CC(=O)O)CC2)ncc1N(C)C(=O)C(C)(C)c1cc(C(F)(F)F)cc(C(F)(F)F)c1 [Example 1]", 100],
  ["Cc1ccccc1-c1cc(N2CCC(CC(=O)O)CC2)ncc1N(C)C(=O)C(C)(C)c1cc(C(F)(F)F)cc(C(F)(F)F)c1 [Example 2]", 81],
  ["Cc1cc(F)ccc1-c1cc(N2CCC(CC(=O)O)C(C)(C)C2)ncc1N(C)C(=O)C(C)(C)c1cc(C(F)(F)F)cc(C(F)(F)F)c1 (centres unmarked) [Example 3]", 100],
  ["COC1CN(c2cc(-c3ccc(F)cc3C)c(N(C)C(=O)C(C)(C)c3cc(C(F)(F)F)cc(C(F)(F)F)c3)cn2)CCC1CC(=O)O (centres unmarked) [Example 5]", 97]
]}

* * *

assayedTarget: human NK1 receptor (Homo sapiens (Human), UniProt P25103)
procedureDetails: Inhibitory effect on human NK1 receptor (substance P-induced increase in intracellular calcium concentration)
Assay type: cell-based
assaySetup: HEK-293T; substance P 1 μM, compound 0.1 μM; human NK1 receptor-expressing 293T cells; read-out: SPRR (Substance P-Response Remaining)
quantity: remaining activity at 0.1 µM (%)

Below: 5 compounds and their reported remaining activity at 0.1 µM.
{"columns": ["compound", "remaining activity at 0.1 µM, %"],
 "data": [
  ["Cc1cc(F)ccc1-c1cc(N2CCC([C@H](C)C(=O)O)CC2)ncc1N(C)C(=O)C(C)(C)c1cc(C(F)(F)F)cc(C(F)(F)F)c1", 7],
  ["Cc1cc(F)ccc1-c1cc(N2CCC(CC(=O)O)CC2)ncc1N(C)C(=O)C(C)(C)c1cc(C(F)(F)F)cc(C(F)(F)F)c1", 28],
  ["Cc1cc(F)ccc1-c1cc(N2CCC(CC(=O)O)C(C)(C)C2)ncc1N(C)C(=O)C(C)(C)c1cc(C(F)(F)F)cc(C(F)(F)F)c1 (stereo not shown)", 13],
  ["Cc1cc(F)ccc1-c1cc(N2CCC(CC(=O)O)C(C)C2)ncc1N(C)C(=O)C(C)(C)c1cc(C(F)(F)F)cc(C(F)(F)F)c1 (stereo not shown)", 16],
  ["Cc1ccccc1-c1cc(N2CCC(CC(=O)O)CC2)ncc1N(C)C(=O)C(C)(C)c1cc(C(F)(F)F)cc(C(F)(F)F)c1", 54]
]}

[1] Cc1cc(F)ccc1-c1cc(N2CCC(CC(=O)O)CC2)nc(C#N)c1N(C)C(=O)C(C)(C)c1cc(C(F)(F)F)cc(C(F)(F)F)c1
[2] Cc1cc(F)ccc1-c1cc(N2CCC(C(C)(C)C(=O)O)CC2)ncc1N(C)C(=O)C(C)(C)c1cc(C(F)(F)F)cc(C(F)(F)F)c1
Could you tell me which of these two has the smaller remaining activity at 0.1 µM figure? First: 1 Second: 2 Indicate your choice by writing its label.
2

[P] Cc1cc(F)ccc1-c1cc(N2CCC(C)(CC(=O)O)CC2)ncc1N(C)C(=O)C(C)(C)c1cc(C(F)(F)F)cc(C(F)(F)F)c1
[Q] COC1CN(c2cc(-c3ccc(F)cc3C)c(N(C)C(=O)C(C)(C)c3cc(C(F)(F)F)cc(C(F)(F)F)c3)cn2)CCC1CC(=O)O (stereo not shown)
Could you tell me which of these two has the smaller remaining activity at 0.1 µM figure? First: P Second: Q Indicate your choice by writing its label.
P
(P: 6%, Q: 49%)
